- Test description: toxicity toward A549 lung cells – cell-based, plate reader, dry powder, set 11, cytotoxicity control, dose response (AID 743413)
- Condition notes: A549 viability, CellTiter-Glo ATP luminescence, 72 h; at 26 µM (top of the series)
Endpoint: activity change, negative = cytotoxicity (%)
Give just the number in %; leave the unit off.

State the recorded activity change, negative = cytotoxicity for this entry: O=C(CSc1c2c(nc3ccc(Cl)cc13)CCCC2)N1CCNC1=O
-13.8

Looking for the measured activity change, negative = cytotoxicity of O=C(CSc1ccc2ccccc2n1)NCc1ccco1 , can you help?
-6.75

Please give the measured activity change, negative = cytotoxicity for this compound: Cn1cc(SCC(=O)NCc2ccco2)c2ccccc21
-0.441

Fill in the blank: the reported activity change, negative = cytotoxicity of CCCCOc1ccc(NC(=O)COc2ccccc2C(=O)NCCOc2ccccc2)cc1 is ____.
-9.94

I have this compound here, CN(C(=O)COc1ccccc1C(N)=O)c1ccccc1 , and I need its recorded activity change, negative = cytotoxicity.
-1.13

Fill blank: measured activity change, negative = cytotoxicity of the compound CN(C)c1ccc(NC(=O)COc2ccccc2C(=O)N2CCOCC2)cc1 is ____.
-1.46

What value of activity change, negative = cytotoxicity has been recorded for this entry: CN(C(=O)COc1ccc(Cl)cc1C(N)=O)c1ccccc1
2.07

What does the record list as activity change, negative = cytotoxicity for COc1ccc(N(Cc2cccs2)C(=O)COc2ccccc2C(=O)Nc2ccccc2)cc1 ?
-14

I'd like to know its activity change, negative = cytotoxicity. The compound in question is O=C(COc1ccccc1C(=O)NCCOc1ccc(Cl)cc1)Nc1cccc(Cl)c1
-15.3

Give the measured activity change, negative = cytotoxicity of O=C(COc1ccc(C(=O)N2CCN(C(=O)C3CC3)CC2)cc1)Nc1cccc(C(F)(F)F)c1 .
-1.09

So what does the record say about activity change, negative = cytotoxicity for Cc1ccc(NC(=O)COc2ccccc2C(=O)NCCN(C)C)cc1 ?
-4.77
